System: M2-10B4 mouse marrow stromal cell line
assay_explanation: Alkaline phosphatase (ALP) activity assay in M2 cells
Format: cell-based
test_conditions: osteogenic medium, 10 μM oxysterols, 3 days
quantity_kind: induction of alkaline phosphatase activity

Problem: Query (compound): CC(C)CCC[C@](C)(O)[C@H]1CC[C@H]2[C@@H]3CC=C4C[C@@H](O)CC[C@]4(C)[C@H]3CC[C@@]21C [20S, 20(S)-hydroxycholesterol] ; field requested: induction of alkaline phosphatase activity
Result: induced

Problem: Query (compound): CC(C)CC[C@H](O)[C@@H](C)[C@H]1CC[C@H]2[C@@H]3CC=C4C[C@@H](O)CC[C@]4(C)[C@H]3CC[C@]12C [22S, 22(S)-hydroxycholesterol] ; field requested: induction of alkaline phosphatase activity
Result: induced

Problem: Query (compound): CC(C)CC[C@@H](O)[C@@H](C)[C@H]1CC[C@H]2[C@@H]3CC=C4C[C@@H](O)CC[C@]4(C)[C@H]3CC[C@]12C [22R, 22(R)-hydroxycholesterol] ; field requested: induction of alkaline phosphatase activity
Result: induced

* * *

Test system: M2 cells
assay_explanation: Adipogenesis of troglitazone-treated M2 cells (oil Red O staining, adipocyte count)
Type: cell-based, mouse
test_conditions: M2 cells treated with Tro 10 μM, oxysterols 10 μM, 10 days
quantity_kind: inhibition of adipogenesis

Problem: State its inhibition of adipogenesis on M2 cells: CC(C)CCC[C@](C)(O)[C@H]1CC[C@H]2[C@@H]3CC=C4C[C@@H](O)CC[C@]4(C)[C@H]3CC[C@@]21C [20S, 20(S)-hydroxycholesterol]
Result: inhibited adipogenesis

Problem: State its inhibition of adipogenesis on M2 cells: CC(C)CC[C@H](O)[C@@H](C)[C@H]1CC[C@H]2[C@@H]3CC=C4C[C@@H](O)CC[C@]4(C)[C@H]3CC[C@]12C [22S, 22(S)-hydroxycholesterol]
Result: inhibited adipogenesis

Problem: State its inhibition of adipogenesis on M2 cells: CC(C)CC[C@@H](O)[C@@H](C)[C@H]1CC[C@H]2[C@@H]3CC=C4C[C@@H](O)CC[C@]4(C)[C@H]3CC[C@]12C [22R, 22(R)-hydroxycholesterol]
Result: inhibited adipogenesis
